Reference source for all entries: ChEMBL document CHEMBL1145498

Entries below carry reported ΔTm on Serine/threonine-protein kinase 26 (Homo sapiens) (UniProt Q9P289).
Sequence (Q9P289 2-416 limits assumed): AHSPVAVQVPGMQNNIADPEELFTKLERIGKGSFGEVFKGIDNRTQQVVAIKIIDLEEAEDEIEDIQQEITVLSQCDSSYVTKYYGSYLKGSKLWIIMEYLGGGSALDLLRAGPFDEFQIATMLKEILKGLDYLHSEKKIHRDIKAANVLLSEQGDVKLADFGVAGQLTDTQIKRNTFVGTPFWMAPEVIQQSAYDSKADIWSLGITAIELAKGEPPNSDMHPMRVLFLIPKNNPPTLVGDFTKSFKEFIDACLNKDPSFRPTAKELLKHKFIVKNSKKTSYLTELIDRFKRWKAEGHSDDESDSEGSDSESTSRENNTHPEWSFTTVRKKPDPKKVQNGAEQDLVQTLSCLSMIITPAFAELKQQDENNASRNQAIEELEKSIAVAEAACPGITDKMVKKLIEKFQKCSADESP
Please respond with the number in °C and leave the unit unwritten.

Below, 5 molecules whose answers are already recorded.
1) O=c1c(O)c(-c2ccc(O)c(O)c2)oc2cc(O)cc(O)c12 | 4.4
2) CC(C)n1cnc2c(NCc3ccccc3O)nc(NCCCO)nc21 | 0.4
3) O=S(=O)(NCCNC/C=C/c1ccc(Br)cc1)c1cccc2cnccc12 | 1.2
4) NCCNc1ncc(C(N)=O)c(Nc2cccc(C(F)(F)F)c2)n1 | 1
5) O=c1sn(Cc2ccccc2)c(=S)n1Cc1ccccc1 | 0.4

Read the next record carefully.
Request: Kindly state the measured ΔTm obtained for CC(C)c1cc(/C=C(\C#N)C(=O)NCCCc2ccccc2)cc(C(C)C)c1O with Serine/threonine-protein kinase 26 (Homo sapiens) (UniProt Q9P289).
Result: 0.3

----------
Entries below carry reported ΔTm on Serine/threonine-protein kinase 25 (Homo sapiens).
Please respond with the number in °C and leave the unit unwritten.

Below, 2 molecules whose answers are already recorded.
1) Cc1cncc2cccc(S(=O)(=O)N3CCCNC[C@@H]3C)c12 | 1.1
2) N=C(N)NCCNS(=O)(=O)c1cccc2cnccc12 | -0.4

Request: Kindly state the measured ΔTm obtained for Oc1ccc(-c2nc(-c3ccc(F)cc3)c(-c3ccncc3)[nH]2)cc1 with Serine/threonine-protein kinase 25 (Homo sapiens).
Result: 0.5

Request: Kindly state the measured ΔTm obtained for O=c1cc(N2CCOCC2)oc2c(-c3ccccc3)cccc12 with Serine/threonine-protein kinase 25 (Homo sapiens).
Result: 0

Request: Kindly state the measured ΔTm obtained for OC[C@H]1O[C@@H](n2cnc3cc(Cl)c(Cl)cc32)[C@H](O)[C@@H]1O with Serine/threonine-protein kinase 25 (Homo sapiens).
Result: 0

----------
ΔTm overview
target: Dual specificity protein kinase CLK2 (Homo sapiens) (UniProt P49760)
Sequence (P49760 whole entry, looked up): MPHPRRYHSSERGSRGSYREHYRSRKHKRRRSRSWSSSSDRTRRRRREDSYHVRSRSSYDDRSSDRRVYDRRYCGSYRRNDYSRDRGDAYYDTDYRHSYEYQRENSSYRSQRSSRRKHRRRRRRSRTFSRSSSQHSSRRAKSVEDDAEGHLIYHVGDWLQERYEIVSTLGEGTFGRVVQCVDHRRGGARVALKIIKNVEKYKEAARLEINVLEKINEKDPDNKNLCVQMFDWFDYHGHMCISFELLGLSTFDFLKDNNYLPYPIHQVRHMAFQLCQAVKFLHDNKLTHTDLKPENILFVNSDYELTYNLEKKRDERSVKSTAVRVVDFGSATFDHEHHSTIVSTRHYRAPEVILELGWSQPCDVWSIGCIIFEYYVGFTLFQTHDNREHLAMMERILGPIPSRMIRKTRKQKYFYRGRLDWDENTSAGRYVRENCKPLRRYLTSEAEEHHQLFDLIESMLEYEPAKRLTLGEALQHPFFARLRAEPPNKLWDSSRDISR
Please respond with the number in °C and leave the unit unwritten.

1) CC[C@H](CO)Nc1nc(NCc2ccccc2)c2ncn(C(C)C)c2n1 [SELICICLIB] | 2.3
2) CN[C@@H]1CC2O[C@@](C)([C@@H]1OC)n1c3ccccc3c3c4c(c5c6ccccc6n2c5c31)C(=O)NC4 | 6.9
3) O=C1Nc2cc(Br)ccc2/C1=C1/Nc2ccccc2/C1=N\O | 1.9
4) CC(C)(C)n1nc(-c2ccc(Cl)cc2)c2c(N)ncnc21 | 1.4
5) CCOc1cc2ncnc(Nc3cccc(Br)c3)c2cc1OCC | 1

Request: Kindly state the measured ΔTm obtained for O=C1Nc2ccccc2/C1=C1/Nc2ccccc2/C1=N\O with Dual specificity protein kinase CLK2 (Homo sapiens) (UniProt P49760).
Result: 7.8

Request: Kindly state the measured ΔTm obtained for CCOc1ccc(/C=C2/SC(=O)N(CCN)C2=O)cc1 [HIAZOLIDINEDIONE1] with Dual specificity protein kinase CLK2 (Homo sapiens) (UniProt P49760).
Result: 0.2

Request: Kindly state the measured ΔTm obtained for CCN(CC)CCNC(=O)c1c(C)[nH]c(/C=C2\C(=O)Nc3ccc(F)cc32)c1C with Dual specificity protein kinase CLK2 (Homo sapiens) (UniProt P49760).
Result: 5.9

----------
Entries below carry reported ΔTm on Serine/threonine-protein kinase RIO2 (Homo sapiens).
Please respond with the number in °C and leave the unit unwritten.

1) O=C(O)c1cc(NCc2cc(O)ccc2O)ccc1O | 0
2) O=C(O)c1cc(N(Cc2ccccc2O)Cc2cc(O)ccc2O)ccc1O | 0
3) O=S(=O)(NCCNC/C=C/c1ccc(Br)cc1)c1cccc2cnccc12 | 0
4) CC(C)[C@H](CO)Nc1nc(Nc2cc(N)cc(Cl)c2)c2ncn(C(C)C)c2n1 | 4.5

Request: Kindly state the measured ΔTm obtained for O=C1Nc2ccc(I)cc2/C1=C\c1cc(Br)c(O)c(Br)c1 with Serine/threonine-protein kinase RIO2 (Homo sapiens).
Result: -0.4

Request: Kindly state the measured ΔTm obtained for CCOc1ccc(/C=C2/SC(=O)N(CCN)C2=O)cc1 with Serine/threonine-protein kinase RIO2 (Homo sapiens).
Result: -0.2

Request: Kindly state the measured ΔTm obtained for CC(C)c1cc(/C=C(\C#N)C(=O)NCCCc2ccccc2)cc(C(C)C)c1O with Serine/threonine-protein kinase RIO2 (Homo sapiens).
Result: -0.5

Request: Kindly state the measured ΔTm obtained for O=c1cc(-c2ccc(O)cc2)oc2cc(O)cc(O)c12 with Serine/threonine-protein kinase RIO2 (Homo sapiens).
Result: 0.2

Request: Kindly state the measured ΔTm obtained for CC(C)(C)c1cc(C=C2C(=O)C=CC2=O)cc(C(C)(C)C)c1O with Serine/threonine-protein kinase RIO2 (Homo sapiens).
Result: 0.3

Request: Kindly state the measured ΔTm obtained for CC(C)c1nn(-c2c(Cl)cccc2Cl)c2nc(Cc3ccc(OCCO)cc3)[nH]c(=O)c12 with Serine/threonine-protein kinase RIO2 (Homo sapiens).
Result: 0.1

Request: Kindly state the measured ΔTm obtained for CN(C)c1ncnc2nc[nH]c12 with Serine/threonine-protein kinase RIO2 (Homo sapiens).
Result: 0.1

Request: Kindly state the measured ΔTm obtained for O=C1C=C2C(=Nc3c2c2c(c4c3=NC3=C4CCC=C3)C=NC=2)CC1 with Serine/threonine-protein kinase RIO2 (Homo sapiens).
Result: 4.7

Request: Kindly state the measured ΔTm obtained for NC(=O)c1ccc2[nH]c(-c3ccc(Oc4ccc(Cl)cc4)cc3)nc2c1 with Serine/threonine-protein kinase RIO2 (Homo sapiens).
Result: 2.4

Request: Kindly state the measured ΔTm obtained for CCOC(=O)c1c(C)[nH]c(/C=C2\C(=O)Nc3ccccc32)c1C with Serine/threonine-protein kinase RIO2 (Homo sapiens).
Result: -8.9

Request: Kindly state the measured ΔTm obtained for N#CC(C#N)=Cc1ccc(O)c(O)c1 with Serine/threonine-protein kinase RIO2 (Homo sapiens).
Result: 1.5

Request: Kindly state the measured ΔTm obtained for CC(C)n1cnc2c(NCc3ccccc3O)nc(NCCCO)nc21 with Serine/threonine-protein kinase RIO2 (Homo sapiens).
Result: -0.1

Request: Kindly state the measured ΔTm obtained for O=C1NC(=O)c2c1c1c3ccccc3[nH]c1n1cncc21 [ISOGRANULATIMIDE] with Serine/threonine-protein kinase RIO2 (Homo sapiens).
Result: 7.3

Request: Kindly state the measured ΔTm obtained for CCN(CC)CCNC(=O)c1c(C)[nH]c(/C=C2\C(=O)Nc3ccc(Cl)cc32)c1C with Serine/threonine-protein kinase RIO2 (Homo sapiens).
Result: 1.6
